System: Phospho-Rb (Ser807/811)
measurement_protocol: Phospho-Retinoblastoma (pRB) Cellular Assay
Type: cell-based
measurement_conditions: Homo sapiens, OVCAR-3; NIH OVCAR3 cells, 24 hours; concentration giving 50% response
pIC50: −log10 of the molar value.
quantity: pIC50

Some solved cases for reference:
COc1c(COC(=O)Nc2ccc(Oc3cccc(F)c3F)cc2)ccc2c1C(=O)N(C1CCC(=O)NC1=O)C2 (stereo not shown) [Example 110] :: 7.14
COc1cc(Oc2ccc(F)cc2)ccc1NC(=O)OCc1ccc2c(c1OC)C(=O)N(C1CCC(=O)NC1=O)C2 (stereo not shown) [Example 37] :: 6.54

[1] O=C1CCC(N2Cc3ccc(COC(=O)Nc4ccc(Oc5ccc(F)cc5)cc4F)c(OC4CCOCC4)c3C2=O)C(=O)N1 (stereo not shown) [Example 135]
[2] COc1c(COC(=O)Nc2ccc(Oc3ccc(F)c(F)c3)cc2C)ccc2c1C(=O)N(C1CCC(=O)NC1=O)C2 (stereo not shown) [Example 38]
Query block: Of the two listed items, 1 and 2 , which carries the larger pIC50 figure? Pick one and reply with its label.
Result block: 1
